# EXPERIMENTAL TARGET: T1, recombinant LILRB2 ECD (human, UniProt Q8N423 22-460)
# T1 construct: also called biotinylated LILRB2 ECD
# T1 sequence (Q8N423 22-460 limits assumed): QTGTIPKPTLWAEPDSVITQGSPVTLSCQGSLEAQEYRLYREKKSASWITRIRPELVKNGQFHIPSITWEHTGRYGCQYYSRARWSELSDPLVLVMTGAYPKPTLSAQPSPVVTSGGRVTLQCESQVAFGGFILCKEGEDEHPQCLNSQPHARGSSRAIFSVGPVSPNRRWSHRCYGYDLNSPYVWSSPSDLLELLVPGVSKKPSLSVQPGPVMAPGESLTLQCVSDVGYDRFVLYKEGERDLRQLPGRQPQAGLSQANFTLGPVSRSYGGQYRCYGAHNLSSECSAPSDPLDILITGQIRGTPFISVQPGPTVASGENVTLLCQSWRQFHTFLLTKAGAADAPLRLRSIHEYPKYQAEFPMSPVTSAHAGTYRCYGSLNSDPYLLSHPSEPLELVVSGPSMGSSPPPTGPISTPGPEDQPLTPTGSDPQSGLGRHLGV
# TEST DETAILS: ELISA, LILRB2 ECD binding to HLA-G-Fc
In this section, each of the binders is paired with its reported IC50.
ENDPOINT LABEL: IC50

BINDER: A-046 (antibody, V domains shown, tested as IgG) VH: QVQLVQSGAEVKKPGSSVKVSCKASGGSFQSYAINWVRQAPGQGLEWMGGIIPGFSTANYAQKFQGRVTITADESTSTAYMELSSLRSEDTAVYYCAKDLGTYSSGWPYYYGMDVWGQGTTVTVSS VL: SYELTQPPSVSVSPGQTASITCSGDKLGDKYASWYQQKPGQSPVLVIYQDSKRPSGIPERFSGSNSGNTATLTISGTQAEDEADYYCQLTHLTIYVFGGGTKLTVL
ENDPOINT LABEL: IC50
RESULT VALUE: 3.7 nM
--
BINDER: A-005 (antibody, V domains shown, tested as IgG) VH: QVQLVQSGAEVKKPGSSVKVSCKASGGTFTIYAINWVRQAPGQGLEWMGGIIPGFHSANYAQKFQGRVTITADESTSTAYMELSSLRSEDTAVYYCAKDLGTYSSGWPYYYGMDVWGQGTTVTVSS VL: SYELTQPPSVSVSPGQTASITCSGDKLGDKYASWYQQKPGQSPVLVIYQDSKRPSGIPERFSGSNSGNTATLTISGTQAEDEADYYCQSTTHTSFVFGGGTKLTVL
ENDPOINT LABEL: IC50
RESULT VALUE: 4.3 nM
--
BINDER: A-036 (antibody, V domains shown, tested as IgG) VH: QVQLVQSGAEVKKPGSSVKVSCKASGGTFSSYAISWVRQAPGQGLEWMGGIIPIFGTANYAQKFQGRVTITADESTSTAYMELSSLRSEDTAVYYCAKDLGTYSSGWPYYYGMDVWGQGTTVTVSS VL: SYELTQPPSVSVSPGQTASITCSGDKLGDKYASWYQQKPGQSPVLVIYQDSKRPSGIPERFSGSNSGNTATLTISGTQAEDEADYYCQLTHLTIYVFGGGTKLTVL
ENDPOINT LABEL: IC50
RESULT VALUE: 2.7 nM
--
BINDER: A-023 (antibody, V domains shown, tested as IgG) VH: QVQLVQSGAEVKKPGSSVKVSCKASGYTFQQYAMSWVRQAPGQGLEWIGGIIPQFSTSVYAQKFQGRVTITADESTSTAYMELSSLRSEDTAVYYCAKGPPVGSSSWYTDWYFDLWGRGTLVTVSS VL: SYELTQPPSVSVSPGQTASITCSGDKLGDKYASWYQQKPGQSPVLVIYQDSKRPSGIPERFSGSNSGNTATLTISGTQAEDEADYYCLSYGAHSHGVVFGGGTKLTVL
ENDPOINT LABEL: IC50
RESULT VALUE: 6.8 nM
--
BINDER: A-026 (antibody, V domains shown, tested as IgG) VH: QVQLVQSGAEVKKPGSSVKVSCKASGYTFTSHGMSWVRQAPGQGLEWMGGILPIFHTATYAQKFQGRVTITADESTSTAYMELSSLRSEDTAVYYCAKGPPVGSSSWYTDWYFDLWGRGTLVTVSS VL: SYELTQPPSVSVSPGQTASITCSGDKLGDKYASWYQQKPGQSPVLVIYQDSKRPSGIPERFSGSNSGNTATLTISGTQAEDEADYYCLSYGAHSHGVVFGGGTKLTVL
ENDPOINT LABEL: IC50
RESULT VALUE: 5.3 nM
